biological target: T1, CD28 endogenously expressed on Jurkat/IL2 reporter cells (human, UniProt P10747 19-220); assay: flow cytometry, Jurkat cells (CD28); MFI relative to WT CD80 ECD-Fc
T1 construct: also called Jurkats (CD28)
Flag rule - Fold change to WT CD80 less than 0.6 fold flags yes; the remaining entries get no.

Binder: variant CD80 IgV-Fc V68M (Fc fusion, not shown: small tags and cut ends; a dimerising Fc or GST) VIHVTKEVKEVATLSCGHNVSVEELAQTRIYWQKEKKMVLTMMSGDMNIWPEYKNRTIFDITNNLSIMILALRPSDEGTYECVVLKYEKDAFKREHLAEVTLSVKAD
Class assignment: yes

Binder: variant CD80 IgV-Fc E35D/M47V (Fc fusion, not shown: small tags and cut ends; a dimerising Fc or GST) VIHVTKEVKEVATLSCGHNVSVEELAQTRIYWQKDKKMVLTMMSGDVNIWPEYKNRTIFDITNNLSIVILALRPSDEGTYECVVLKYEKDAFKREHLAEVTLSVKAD
Class assignment: no

Binder: variant CD80 IgV-Fc E35D/M47L/V68M (Fc fusion, not shown: small tags and cut ends; a dimerising Fc or GST) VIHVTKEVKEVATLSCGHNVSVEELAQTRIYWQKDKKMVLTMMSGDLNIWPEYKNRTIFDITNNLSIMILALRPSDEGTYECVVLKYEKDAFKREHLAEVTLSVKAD
Class assignment: no

Binder: variant CD80 IgV-Fc E35D (Fc fusion, not shown: small tags and cut ends; a dimerising Fc or GST) VIHVTKEVKEVATLSCGHNVSVEELAQTRIYWQKDKKMVLTMMSGDMNIWPEYKNRTIFDITNNLSIVILALRPSDEGTYECVVLKYEKDAFKREHLAEVTLSVKAD
Class assignment: yes

Binder: variant CD80 IgV-Fc M47L (Fc fusion, not shown: small tags and cut ends; a dimerising Fc or GST) VIHVTKEVKEVATLSCGHNVSVEELAQTRIYWQKEKKMVLTMMSGDLNIWPEYKNRTIFDITNNLSIVILALRPSDEGTYECVVLKYEKDAFKREHLAEVTLSVKAD
Class assignment: yes
